- Test target: UniProt Q8VF43
- Sequence (whole entry): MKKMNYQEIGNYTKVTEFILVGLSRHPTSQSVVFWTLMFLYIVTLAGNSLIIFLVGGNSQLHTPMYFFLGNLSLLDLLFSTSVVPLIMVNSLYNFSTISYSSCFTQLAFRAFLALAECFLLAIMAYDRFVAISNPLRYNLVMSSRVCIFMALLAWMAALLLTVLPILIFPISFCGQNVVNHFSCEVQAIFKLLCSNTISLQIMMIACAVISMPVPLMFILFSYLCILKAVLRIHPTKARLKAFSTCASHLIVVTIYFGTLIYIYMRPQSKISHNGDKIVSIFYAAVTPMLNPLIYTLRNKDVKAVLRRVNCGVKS
- Condition summary: stereoisomer not certain
Valid outcomes are listed here; reply with one: 1 (yes) for active, 0 (no) for inactive

Answered cases to consult:
{"Compound": "O=C1CCOc2ccccc21", "Label": "0 (no)"}
{"Compound": "CCCCCCOC(C)=O", "Label": "0 (no)"}
{"Compound": "CC(=O)C=CC1=C(C)CCCC1(C)C", "Label": "0 (no)"}
{"Compound": "O=C(OCc1ccccc1)c1ccccc1O", "Label": "0 (no)"}
{"Compound": "CCc1ccccc1O", "Label": "0 (no)"}

Could you kindly confirm the outcome this assay logged for C=C(C)C1CCC(C)C(=O)C1 (stereo unspecified) ?
0 (no)

Could you kindly confirm the outcome this assay logged for C=C1C2CCC(C2)C1(C)C (stereo unspecified) ?
0 (no)

Could you kindly confirm the outcome this assay logged for CC(=O)OCC=C(C)C ?
0 (no)

Could you kindly confirm the outcome this assay logged for CCCCCCCCOC=O ?
0 (no)

Could you kindly confirm the outcome this assay logged for CCC=CCCC=CC=O ?
0 (no)

Could you kindly confirm the outcome this assay logged for Cc1ccc2c(c1)OCC(=O)CO2 ?
0 (no)

Could you kindly confirm the outcome this assay logged for Cc1ccccc1OC(=O)C(C)C ?
0 (no)

Could you kindly confirm the outcome this assay logged for C=C(C)C1CCC2(C)OC2C1 (stereo unspecified) ?
0 (no)

Could you kindly confirm the outcome this assay logged for CC(C)=CCCC(C)=CCOC(=O)C(C)C ?
0 (no)

Could you kindly confirm the outcome this assay logged for CC(C)CS ?
0 (no)
